# method.summary: Volume of distribution in Sprague-Dawley rat at 2 mg/kg, iv
# Assay type: ADME, organism-based
# Design: dose 2 mg/kg, route intravenous
# measurement.parameters: in vivo, read-out: Vdss
measurement.label: Vd

## Input So what's the measured Vd for this one? CNc1ncnc(-c2cccnc2Oc2cc(NC(=O)c3cccc(OC(F)(F)C(F)F)c3)ccc2C)n1
## Output 1.31 L/kg

---

# system: Angiopoietin-1 receptor (Homo sapiens)
# Sequence (Q02763 whole entry): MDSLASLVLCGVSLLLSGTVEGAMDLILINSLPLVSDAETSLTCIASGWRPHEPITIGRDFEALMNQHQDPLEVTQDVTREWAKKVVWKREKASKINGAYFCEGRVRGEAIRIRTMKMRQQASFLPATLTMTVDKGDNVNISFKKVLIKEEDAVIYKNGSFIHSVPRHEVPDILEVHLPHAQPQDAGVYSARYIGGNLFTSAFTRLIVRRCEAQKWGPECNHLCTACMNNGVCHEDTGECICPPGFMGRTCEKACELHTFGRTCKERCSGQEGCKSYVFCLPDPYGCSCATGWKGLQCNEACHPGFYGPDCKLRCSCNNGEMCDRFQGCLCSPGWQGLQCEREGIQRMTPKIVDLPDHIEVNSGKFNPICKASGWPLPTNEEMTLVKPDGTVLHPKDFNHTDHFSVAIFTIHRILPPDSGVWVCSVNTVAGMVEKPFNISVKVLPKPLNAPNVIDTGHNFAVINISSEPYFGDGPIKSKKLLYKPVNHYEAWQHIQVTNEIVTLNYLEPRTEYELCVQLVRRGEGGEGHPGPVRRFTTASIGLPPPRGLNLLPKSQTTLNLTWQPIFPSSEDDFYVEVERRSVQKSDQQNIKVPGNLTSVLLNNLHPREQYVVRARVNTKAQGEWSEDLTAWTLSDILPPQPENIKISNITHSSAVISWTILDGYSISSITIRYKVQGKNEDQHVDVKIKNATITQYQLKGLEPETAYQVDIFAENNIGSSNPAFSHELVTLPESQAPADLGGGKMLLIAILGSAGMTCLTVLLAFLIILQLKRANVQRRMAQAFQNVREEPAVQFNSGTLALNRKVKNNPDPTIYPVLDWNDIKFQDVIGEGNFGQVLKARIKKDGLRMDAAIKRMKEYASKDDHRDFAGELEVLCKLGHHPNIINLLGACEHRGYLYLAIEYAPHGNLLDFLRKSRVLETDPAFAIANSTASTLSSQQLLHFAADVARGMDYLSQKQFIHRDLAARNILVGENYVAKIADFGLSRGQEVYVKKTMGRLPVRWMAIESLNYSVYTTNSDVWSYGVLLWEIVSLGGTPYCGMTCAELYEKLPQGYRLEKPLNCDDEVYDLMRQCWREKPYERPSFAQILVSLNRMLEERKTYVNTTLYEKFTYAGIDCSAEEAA
# method.summary: Inhibition of Tie2 after 90 mins by HTRF assay
Provide the recorded IC50 for the entries that follow.
Give bare numbers, in nM.

[
  {
    "item.smiles": "CNc1cc(-c2cccnc2Oc2cccc(NC(=O)c3cccc(C(C)C)c3)c2)ccn1",
    "endpoint.value": 4
  },
  {
    "item.smiles": "CNc1ncnc(-c2cccnc2Oc2cc(C(=O)Nc3cccc(C(C)C)c3)ccc2C)n1",
    "endpoint.value": 1
  },
  {
    "item.smiles": "CNc1ncnc(-c2cccnc2Oc2cc(NC(=O)c3cccc(-n4cccc4)c3)ccc2C)n1",
    "endpoint.value": 17
  },
  {
    "item.smiles": "CNc1nccc(-c2cccnc2Oc2cc(NC(=O)c3cccc(C(C)C)c3)ccc2C)n1",
    "endpoint.value": 2
  },
  {
    "item.smiles": "CNc1cc(-c2cccnc2Oc2cc(NC(=O)c3cccc(OC(F)(F)C(F)F)c3)ccc2C)ccn1",
    "endpoint.value": 9
  },
  {
    "item.smiles": "CNc1cc(-c2cccnc2Oc2ccc(Cl)c(NC(=O)c3cccc(C(C)C)c3)c2)ccn1",
    "endpoint.value": 6
  }
]

// input: 6 molecules below; output: IC50 for each
1. CNc1ncnc(-c2cccnc2Oc2cc(NC(=O)c3cccc(OC(F)(F)F)c3)ccc2C)n1
2. CNc1ncnc(-c2cccnc2Oc2cc(NC(=O)c3cccc(C(C)C)c3)ccc2C)n1
3. CNc1ncnc(-c2cccnc2Oc2cc(NC(=O)c3cccc(C(C)C)c3)ccc2F)n1
4. CNc1ncnc(-c2cccnc2Oc2cc(NC(=O)c3cccc(C(F)(F)F)c3)ccc2C)n1
5. CNc1ncnc(-c2cccnc2Oc2cc(NC(=O)c3cccc(C(C)C)c3)cc(C(F)(F)F)c2)n1
6. CNc1nccc(-c2cccnc2Oc2cc(C(=O)Nc3cccc(C(C)C)c3)ccc2C)n1

## Output
8
1
4
20
55
13

Items follow; give IC50 for each.
1. CNc1cc(-c2cccnc2Oc2cc(NC(=O)c3cccc(C(C)C)c3)ccc2C)ccn1
2. CNc1ncnc(-c2cccnc2Oc2cc(NC(=O)c3cccc(OC(F)(F)C(F)F)c3)ccc2C)n1
3. CNc1ncnc(-c2cccnc2Oc2cccc(NC(=O)c3cccc(C(C)C)c3)c2)n1
4. CNc1cc(-c2cccnc2Oc2cc(C(=O)Nc3cccc(C(C)C)c3)ccc2C)ccn1

## Output
1
16
6
3

---

# system: Tyrosine-protein kinase Lck (Homo sapiens)
# Sequence (P06239 whole entry): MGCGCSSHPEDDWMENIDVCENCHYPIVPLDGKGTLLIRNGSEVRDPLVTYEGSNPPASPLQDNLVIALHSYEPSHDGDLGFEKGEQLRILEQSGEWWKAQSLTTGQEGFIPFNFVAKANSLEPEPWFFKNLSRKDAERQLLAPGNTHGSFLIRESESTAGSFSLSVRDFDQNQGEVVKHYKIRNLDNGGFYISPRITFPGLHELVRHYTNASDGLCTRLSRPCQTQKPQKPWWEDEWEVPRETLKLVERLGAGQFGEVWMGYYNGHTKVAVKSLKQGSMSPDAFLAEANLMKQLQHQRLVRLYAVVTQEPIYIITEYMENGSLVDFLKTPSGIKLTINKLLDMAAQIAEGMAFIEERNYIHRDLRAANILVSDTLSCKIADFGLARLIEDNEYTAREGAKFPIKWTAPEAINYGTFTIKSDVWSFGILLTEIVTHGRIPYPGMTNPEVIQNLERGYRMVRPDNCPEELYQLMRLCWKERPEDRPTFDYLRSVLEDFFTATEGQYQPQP
# method.summary: Inhibition of Lck by radioactive filtration assay
measurement.label: pIC50
One number for each entry, as −log10 of the molar value.

## Input What does the data say about its pIC50? Entry: CNc1ncnc(-c2cccnc2Oc2cc(NC(=O)c3cccc(OC(F)(F)C(F)F)c3)ccc2C)n1
## Output 6.84
